Source listed as the NIST ThermoML archive (doi:10.1021/je400004j).

# method_notes: xn = mol fraction of the nth substance listed
# conditions_used: 298.15 K, Ring tensiometer, x1 = 0.3
Property: surface tension liquid-gas; scope: individual molecules
I only need the number, in mN/m, no unit after it.

[[record]]
molecule = "COP(=O)([O-])OC.Cn1cc[n+](C)c1 [1,3-dimethylimidazolium dimethylphosphate] + O"
measured_attribute = "surface tension liquid-gas"
result_units = "mN/m"
result_number = 50.6

[[record]]
molecule = "CCOP(=O)([O-])OCC.CCn1cc[n+](C)c1 [1-ethyl-3-methylimidazolium diethyl phosphate] + CO"
measured_attribute = "surface tension liquid-gas"
result_units = "mN/m"
result_number = 30.4

[[record]]
molecule = "CCCCn1cc[n+](CC)c1.CCOP(=O)([O-])OCC [1-butyl-3-ethyl-1H-imidazol-3-ium diethyl phosphate] + O"
measured_attribute = "surface tension liquid-gas"
result_units = "mN/m"
result_number = 32.9

[[record]]
molecule = "CCOP(=O)([O-])OCC.CCn1cc[n+](CC)c1 [1,3-diethyl-1H-imidazol-3-ium diethyl phosphate] + CO"
measured_attribute = "surface tension liquid-gas"
result_units = "mN/m"
result_number = 30.3

[[record]]
molecule = "CCCCn1cc[n+](C)c1.COP(=O)([O-])OC [1-butyl-3-methyl-1H-imidazolium dimethylphosphate] + CCO"
measured_attribute = "surface tension liquid-gas"
result_units = "mN/m"
result_number = 25

[[record]]
molecule = "CCCCOP(=O)([O-])OCCCC.CCCCn1cc[n+](C)c1 [1-butyl-3-methylimidazolium dibutyl phosphate] + CCO"
measured_attribute = "surface tension liquid-gas"
result_units = "mN/m"
result_number = 24.5

[[record]]
molecule = "CCCCn1cc[n+](CC)c1.CCOP(=O)([O-])OCC [1-butyl-3-ethyl-1H-imidazol-3-ium diethyl phosphate] + CCO"
measured_attribute = "surface tension liquid-gas"
result_units = "mN/m"
result_number = 24.7

[[record]]
molecule = "CCOP(=O)([O-])OCC.CCn1cc[n+](C)c1 [1-ethyl-3-methylimidazolium diethyl phosphate] + O"
measured_attribute = "surface tension liquid-gas"
result_units = "mN/m"
result_number = 38

[[record]]
molecule = "CCCCOP(=O)([O-])OCCCC.CCCCn1cc[n+](C)c1 [1-butyl-3-methylimidazolium dibutyl phosphate] + O"
measured_attribute = "surface tension liquid-gas"
result_units = "mN/m"
result_number = 29

[[record]]
molecule = "CCOP(=O)([O-])OCC.CCn1cc[n+](CC)c1 [1,3-diethyl-1H-imidazol-3-ium diethyl phosphate] + O"
measured_attribute = "surface tension liquid-gas"
result_units = "mN/m"
result_number = 37.2


**Query** Which surface tension liquid-gas reading was recorded for the molecule CCOP(=O)([O-])OCC.CCn1cc[n+](C)c1 [1-ethyl-3-methylimidazolium diethyl phosphate] + CCO ?
**Result** 25

**Query** Cool, now CCCCn1cc[n+](CC)c1.CCOP(=O)([O-])OCC [1-butyl-3-ethyl-1H-imidazol-3-ium diethyl phosphate] + CO
**Result** 29.8
